B1: glmS ribozyme (parent)
chain: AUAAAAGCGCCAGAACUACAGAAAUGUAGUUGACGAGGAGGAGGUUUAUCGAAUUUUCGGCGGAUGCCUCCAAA

# Variants of: B1
# PROTOCOL SUMMARY: self-cleavage kobs at 40 uM GlcN6P; higher = faster cleavage; RNA array
# APPLIED CONDITIONS: with glucosamine-6-phosphate
This sample holds only a part of the variants without activity.
MEASURED QUANTITY: self-cleavage kobs at 40 uM GlcN6P

• A39G U45G A48G = < 1e-05 s⁻¹
• A53C C71U = 0.000156 s⁻¹
• C8A U46A = < 1e-05 s⁻¹
• A12U A52C C58U C71U = < 1e-05 s⁻¹
• A6C C10G = < 1e-05 s⁻¹
• A42C U45A C67A = < 1e-05 s⁻¹
• U31C G44A C71U = < 1e-05 s⁻¹
• A14G C70G = 9.61e-05 s⁻¹
• A48G G63U = < 1e-05 s⁻¹
• G32U G37U A39G = < 1e-05 s⁻¹
• U31C U69C = 4.67e-05 s⁻¹
• G40C C68U = < 1e-05 s⁻¹
• A14C C34A C67U = < 1e-05 s⁻¹
• G7A G9U C16A G37U U65C = < 1e-05 s⁻¹
• G37A U56A = 1.92e-05 s⁻¹
• U46A U47A = 0.000207 s⁻¹
• G29U G35A A48G A53C = < 1e-05 s⁻¹
• A15G A52G C58G = < 1e-05 s⁻¹
• G7U G29C G43U G51A = < 1e-05 s⁻¹
• G43C A53G = < 1e-05 s⁻¹
• A6U G59C C71G = < 1e-05 s⁻¹
• G29U U30G = 9.59e-05 s⁻¹
